system: 242566-281-R-J2-PDC complex spheroid viability; experiment: Anticancer human tumor 242566-281-R-J2-PDC patient-derived pancreatic carcinoma cell line growth inhibition [RAS]; details: second compound 0.3 µM; first compound 0.00949 µM; active compounds read low
value.kind: viability, T/C (%)
Numbers only, in %.

compound	tested.on	value.kind	measurement.units	recorded.number
CC1(C)CCC(Nc2ncc(C(F)(F)F)c(-c3c[nH]c4c(P(C)(C)=O)c(C#N)ccc34)n2)CN1 (centres undefined) + CCn1c(-c2cccnc2C(C)OC)c2c3cc(ccc31)N1CCOC(CC(NC(=O)C(C(C)C)N(C)C(=O)C3(F)CCN(C(=O)C#CC(C)(C)N(C)C)CC3)C(=O)N3CCCC(N3)C(=O)OCC(C)(C)C2)C1	242566-281-R-J2-PDC complex spheroid viability	viability, T/C	%	75.2
CCc1c2c(nc3ccc(O)cc13)-c1cc3c(c(=O)n1C2)COC(=O)[C@]3(O)CC + CCn1c(-c2cc(N3CCN(C)CC3)cnc2C(C)OC)c2c3cc(ccc31)-c1csc(n1)CC(NC(=O)C1CC1C)C(=O)N1CCCC(N1)C(=O)OCC(C)(C)C2	242566-281-R-J2-PDC complex spheroid viability	viability, T/C	%	18.1
CCc1c2c(nc3ccc(O)cc13)-c1cc3c(c(=O)n1C2)COC(=O)[C@]3(O)CC + CCn1c(-c2cccnc2C(C)OC)c2c3cc(ccc31)N1CCOC(CC(NC(=O)C(C(C)C)N(C)C(=O)C3(F)CCN(C(=O)C#CC(C)(C)N(C)C)CC3)C(=O)N3CCCC(N3)C(=O)OCC(C)(C)C2)C1	242566-281-R-J2-PDC complex spheroid viability	viability, T/C	%	56.5

# input for lookup
Prompt: Could you share which viability, T/C value was measured for CC1(C)CCC(Nc2ncc(C(F)(F)F)c(-c3c[nH]c4c(P(C)(C)=O)c(C#N)ccc34)n2)CN1 (centres undefined) + CCn1c(-c2cc(N3CCN(C)CC3)cnc2C(C)OC)c2c3cc(ccc31)-c1csc(n1)CC(NC(=O)C1CC1C)C(=O)N1CCCC(N1)C(=O)OCC(C)(C)C2 ?
Completion: 21.3

----------
test system: 242566-281-R-J2-PDC complex spheroid viability; assay: Anticancer human tumor 242566-281-R-J2-PDC cell line growth inhibition [RAS]; settings: second compound 0.01 µM; first compound 10 µM; active means viability on the fitted dose curve at most 10% of control; inactive means the rest;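 note: spheroids exposed to compound for 7 days before readout; 100% = DMSO vehicle control wells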
Form entry, call: pick from yes (1) for active, no (0) for inactive

compound	class.name
CCC(CC)c1cc(NC2CCC(N)C2)n2nccc2n1 (stereo not given) + C=CC(=O)N1CCN(c2nc(OCC3CCCN3C)nc3c(F)c(-c4nc(N)cc(C)c4C(F)(F)F)c(Cl)cc23)C(C)C1	yes (1)
NC1c2ccccc2OC12CCN(c1cnc3c(N4CCCc5ncccc54)n[nH]c3n1)CC2 (stereo not given) + C=CC(=O)N1CCN(c2nc(OCC3CCCN3C)nc3c(F)c(-c4nc(N)cc(C)c4C(F)(F)F)c(Cl)cc23)C(C)C1	no (0)
CC(=O)OC12COC1CC(O)C1(C)C(=O)C(O)C3=C(C)C(OC(=O)C(O)C(NC(=O)OC(C)(C)C)c4ccccc4)CC(O)(C(OC(=O)c4ccccc4)C21)C3(C)C (stereo not given) + C=CC(=O)N1CCN(c2nc(OCC3CCCN3C)nc3c(F)c(-c4nc(N)cc(C)c4C(F)(F)F)c(Cl)cc23)C(C)C1	no (0)
CC(Nc1ccc2c(c1)OCCn1cc(N3C(=O)OCC3C(F)F)nc1-2)C(N)=O (stereo not given) + C=CC(=O)N1CCN(c2nc(OCC3CCCN3C)nc3c(F)c(-c4nc(N)cc(C)c4C(F)(F)F)c(Cl)cc23)C(C)C1	no (0)

Lab note: next compound to report on.
Prompt: Per the assay record, what outcome was assigned to CC(C)NCC(C(=O)N1CCN(c2ncnc3c2C(C)CC3O)CC1)c1ccc(Cl)cc1 (stereo not given) + C=CC(=O)N1CCN(c2nc(OCC3CCCN3C)nc3c(F)c(-c4nc(N)cc(C)c4C(F)(F)F)c(Cl)cc23)C(C)C1 ?
Completion: no (0)
